Compiled notes: published pKi values involving Cannabinoid receptor 1 (Homo sapiens, UniProt P21554).
pKi: −log10 of the molar value.
Threshold rule: pKi greater than or equal to 7 is MET; below that, NOT MET.

// below: answered molecules
molecule="Cc1ccc(N2C(=O)C(c3ccccc3)N(c3ccc(C)cc3)C2=S)cc1 (configuration not stated)" category_label="NOT MET"
molecule="CN=C(NS(=O)(=O)c1ccc(Cl)cc1)N1CC(c2ccc(Cl)cc2)C(c2ccc(Cl)cc2)=N1 (configuration not stated)" category_label="NOT MET"
molecule=CS(=O)(=O)NC1CCN(c2ncnc3c2nc(-c2ccccc2Cl)n3-c2ccc(Cl)cc2)CC1 category_label=MET
molecule=O=C(NC1CCN(c2ncnc3c2nc(-c2ccccc2Cl)n3-c2ccc(Cl)cc2)CC1)C1CCSCC1 category_label=MET
molecule="CC(C(=O)Nc1ccc2c(c1)C(N1CCOCC1)CCC2)(C(F)(F)F)C(F)(F)F (single isomer, unassigned; enantiomer 2)" category_label="NOT MET"
molecule=Cc1ccc(Cn2cc(C(=O)N3CCN(c4ccccc4Cl)CC3)cc2-c2ccc(Cl)c(C)c2)cc1 category_label="NOT MET"

Enquiry: Decide: pKi of O=C1C(c2ccccc2)N(c2ccc(Br)cc2)C(=O)N1c1ccc(Br)cc1 (configuration not stated) >= 7?
Return: NOT MET

Enquiry: Please check the record CCOC(=O)CN1C(c2ccc(F)cc2)Nc2ccc(Br)cc2C1c1ccccc1 (configuration not stated) and state if its pKi is at or above 7.
Return: NOT MET

Enquiry: State whether the measured pKi reaches 7, counting equality as reaching it, for O=S(=O)(NCCC1CCC(c2ccc(Cl)cc2Cl)N(c2ccc(Cl)cc2)C1)C1CC1 (stereo in doubt; 14f)
Return: MET

Enquiry: Record COc1ccc(S(=O)(=O)c2cc(OC)ccc2S(=O)(=O)c2ccc([C@H](C)NC(=O)Cc3ccccc3)cc2)cc1 ; criterion: pKi no lower than 7. Met?
Return: NOT MET
